# TEST DESCRIPTION: 50% lethal concentration in uninfected MT4 cells (MTT)
# Assay type: cell-based
# STUDY CONDITIONS: human, read-out: LC50
REPORTED METRIC: CC50 at 120 h (µM)
Give the number; µM is assumed, so skip it.

Input line: Please report CC50 at 120 h for the following compound: Cc1cccc(C)c1OCC(=O)N[C@@H](Cc1ccccc1)[C@@H](O)C[C@H](Cc1ccccc1)NC(=O)[C@H](C(C)C)N1CC=NNC1=O [Example 30B]
Output line: 18

Input line: Give recorded CC50 at 120 h. Cc1cccc(C)c1OCC(=O)N[C@@H](Cc1ccccc1)[C@@H](O)C[C@H](Cc1ccccc1)NC(=O)[C@H](C(C)C)N1CCC(=O)NC1=O [Example 25E]
Output line: 22.9

Input line: Quick one: give measured CC50 at 120 h for Cc1cccc(C)c1OCC(=O)N[C@@H](Cc1ccccc1)[C@@H](O)C[C@H](Cc1ccccc1)NC(=O)[C@H](C(C)C)N1CCNC(=O)C1=O [Example 29C]
Output line: 56

Input line: Retrieve CC50 at 120 h measured for Cc1cccc(C)c1OCC(=O)N[C@@H](Cc1ccccc1)[C@@H](O)C[C@H](Cc1ccccc1)NC(=O)[C@H](C(C)C)N1C(=O)CCC1=O [Example 18C] and print it.
Output line: 19.1

----------
Each item that follows carries a reported pEC50.
# Tested on: Ritonavir-Resistant Mutant HIV Clones
# TEST DESCRIPTION: microbe, parasite or virus in culture
# Type: cell-based
# STUDY CONDITIONS: Human immunodeficiency virus 1, Virus Clone L90M; 50% Human Serum
The meaning of pEC50 here: minus log10 of the concentration in molar units.

SAMPLE SMILES | ASSAY SYSTEM | REPORTED METRIC | OBSERVED RESULT
Cc1cccc(C)c1OCC(=O)N[C@@H](Cc1ccccc1)[C@@H](O)C[C@H](Cc1ccccc1)NC(=O)[C@H](C(C)C)N1CCCNC1=O | Ritonavir-Resistant Mutant HIV Clones | pEC50 | 6.74

Now let's try a different one.
Input line: Report measured pEC50; entry is `CC(C)c1nc(CN(C)C(=O)N[C@H](C(=O)N[C@@H](Cc2ccccc2)C[C@H](O)[C@H](Cc2ccccc2)NC(=O)OCc2cncs2)C(C)C)cs1`
Output line: 5.64

----------
# TEST DESCRIPTION: 50% lethal concentration in uninfected MT4 cells (MTT)
# Assay type: cell-based
# STUDY CONDITIONS: human, read-out: LC50
Each entry below carries its recorded CC50 at 120 h.

Example results:
COMPOUND | CC50 at 120 h
Cc1cccc(C)c1OCC(=O)N[C@@H](Cc1ccccc1)[C@@H](O)C[C@H](Cc1ccccc1)NC(=O)[C@H](C(C)C)N1CCNC1=O [Example 1P] | 41.3 µM
CC(C)[C@@H](C(=O)N[C@@H](Cc1ccccc1)C[C@H](O)[C@H](Cc1ccccc1)NC(=O)OCc1cncs1)N1CCNC1=O [Example 6F] | > 100 µM

Turning to the following compound.
Input line: Tell me its CC50 at 120 h given Cc1cccc(C)c1OCC(=O)N[C@@H](Cc1ccccc1)[C@@H](O)C[C@H](Cc1ccccc1)NC(=O)[C@H](C(C)C)N1CCOC1=O [Example 3C] as the entry.
Output line: 49.5 µM

----------
# System: Ritonavir-Resistant HIV from Patients
# TEST DESCRIPTION: microbe, parasite or virus in culture
# Type: cell-based
# STUDY CONDITIONS: Human immunodeficiency virus 1, Patient No. 104, Day -1, baseline
Parameter: EC50. Scope: all listed entries.
Just the number in nM, nothing appended.

SAMPLE SMILES | ASSAY SYSTEM | REPORTED METRIC | OBSERVED RESULT
Cc1cccc(C)c1OCC(=O)N[C@@H](Cc1ccccc1)[C@@H](O)C[C@H](Cc1ccccc1)NC(=O)[C@H](C(C)C)N1CCCNC1=O | Ritonavir-Resistant HIV from Patients | EC50 | 8

Now look at this entry.
Input line: Please report the measured EC50 for `CC(C)c1nc(CN(C)C(=O)N[C@H](C(=O)N[C@@H](Cc2ccccc2)C[C@H](O)[C@H](Cc2ccccc2)NC(=O)OCc2cncs2)C(C)C)cs1`
Output line: 21

----------
Recorded CC50 at 120 h for the following compounds
# TEST DESCRIPTION: 50% lethal concentration in uninfected MT4 cells (MTT)
# Format: cell-based
# STUDY CONDITIONS: human, read-out: LC50
Number in µM, nothing else.

Before answering, review these 2 worked examples.
COMPOUND | CC50 at 120 h, µM
Cc1cccc(C)c1OCC(=O)N[C@@H](Cc1ccccc1)[C@@H](O)C[C@H](NC(=O)[C@H](C(C)C)N1CCC(=O)NC1=O)C(C)C [Example 28] | 72.2
Cc1cccc(C)c1/C=C/C(=O)N[C@@H](Cc1ccccc1)[C@@H](O)C[C@H](Cc1ccccc1)NC(=O)[C@H](C(C)C)N1CCCNC1=O [Example 19E] | 17.9

Attention now turns to another entry.
Input line: Give the reported value of CC50 at 120 h for this record: Cc1cc(F)cc(C)c1OCC(=O)N[C@@H](Cc1ccccc1)[C@@H](O)C[C@H](Cc1ccccc1)NC(=O)[C@H](C(C)C)N1CCNC1=O [Example 12B]
Output line: 19.1

----------
# Tested on: HIVIIIB
# TEST DESCRIPTION: Antiviral activity (anti-HIV activity) in MT4 cells, MTT readout
# Assay type: cell-based
# STUDY CONDITIONS: Human immunodeficiency virus 1, MT4, 120 h, read-out: IC50 (µM, 0% plasma)
REPORTED METRIC: log10(IC50) (log10 of the value in µM)
// do not treat as linear: log10 of IC50, unit µM

Input line: Supply log10(IC50) value. Item: `Cc1cccc(C)c1OCC(=O)N[C@@H](Cc1ccccc1)[C@@H](O)C[C@H](Cc1ccccc1)NC(=O)[C@H](C(C)C)N1CCNC1=O`
Output line: -2.00

Input line: State, in one line, measured log10(IC50) of `Cc1cccc(C)c1OCC(=O)N[C@@H](Cc1ccccc1)[C@@H](O)C[C@H](Cc1ccccc1)NC(=O)[C@H](C(C)C)N1CCOC1=O`
Output line: -1.60

Input line: Look up and report measured log10(IC50) for this entry: `Cc1cccc(C)c1OCC(=O)N[C@@H](Cc1ccccc1)[C@@H](O)C[C@H](Cc1ccccc1)NC(=O)[C@H](C(C)C)N1CCCNC1=O`
Output line: -1.80

Input line: Using known records, supply log10(IC50) for Cc1cc(F)cc(C)c1OCC(=O)N[C@@H](Cc1ccccc1)[C@@H](O)C[C@H](Cc1ccccc1)NC(=O)[C@H](C(C)C)N1CCNC1=O [Example 12B]
Output line: -1.03

Input line: Return log10(IC50) (reported value) for this compound: `Cc1ccnc(C)c1OCC(=O)N[C@@H](Cc1ccccc1)[C@@H](O)C[C@H](Cc1ccccc1)NC(=O)[C@H](C(C)C)N1CCNC1=O`
Output line: -0.92

----------
# TEST DESCRIPTION: 50% lethal concentration in uninfected MT4 cells (MTT)
# Type: cell-based
# STUDY CONDITIONS: human, read-out: LC50
We label by threshold. Values of CC50 at 120 h strictly beneath 20 µM are condition met. Values of 20 µM and up are condition not met.

Take a look at these entries with their results.
COMPOUND | LABEL
Cc1cccc(C)c1OCC(=O)N[C@@H](Cc1ccccc1)[C@@H](O)C[C@H](Cc1ccccc1)NC(=O)[C@H](C(C)C)N1CCCNC1=O | condition met
Cc1cccc(C)c1OCC(=O)N[C@@H](Cc1ccccc1)[C@@H](O)C[C@H](Cc1ccccc1)NC(=O)[C@H](C(C)C)N1CCCC1=O [Example 17C] | condition met
Cc1cccc(C)c1CCC(=O)N[C@@H](Cc1ccccc1)[C@@H](O)C[C@H](Cc1ccccc1)NC(=O)[C@H](C(C)C)N1CCCNC1=O [Example 20D] | condition not met
CC(C)(C)[C@@H](C(=O)N[C@@H](Cc1ccccc1)C[C@H](O)[C@H](Cc1ccccc1)NC(=O)OCc1cncs1)N1CCNC1=O | condition not met
Cc1cccc(C)c1OCC(=O)N[C@@H](Cc1ccccc1)[C@@H](O)C[C@H](Cc1ccccc1)NC(=O)[C@H](C(C)C)N1CCNC1=S | condition met

Input line: Determine whether this compound shows CC50 at 120 h lower than 20 µM (ties excluded): Cc1cccc(C)c1OCC(=O)N[C@@H](Cc1ccccc1)[C@@H](O)C[C@H](Cc1ccccc1)NC(=O)[C@H](C(C)C)N1CCNNC1=O [Example 26H]
Output line: condition not met

----------
# Test system: Ritonavir-Resistant HIV from Patients
# TEST DESCRIPTION: microbe, parasite or virus in culture
# Type: cell-based
# STUDY CONDITIONS: Human immunodeficiency virus 1, Patient No. 224, Day -6, baseline
Measured EC50, listed per entry.
// units = nM; emit number, no label

SAMPLE SMILES | OUTPUT UNIT | EC50
Cc1cccc(C)c1OCC(=O)N[C@@H](Cc1ccccc1)[C@@H](O)C[C@H](Cc1ccccc1)NC(=O)[C@H](C(C)C)N1CCCNC1=O | nM | 6

Input line: Return reported EC50. Input compound: `CC(C)c1nc(CN(C)C(=O)N[C@H](C(=O)N[C@@H](Cc2ccccc2)C[C@H](O)[C@H](Cc2ccccc2)NC(=O)OCc2cncs2)C(C)C)cs1`
Output line: 29

Ref: patent EP1295874A2
